Biological target: GST-Rok (full length) (Bacillus subtilis subsp. subtilis str. …, UniProt O34857 1-191)
Sequence: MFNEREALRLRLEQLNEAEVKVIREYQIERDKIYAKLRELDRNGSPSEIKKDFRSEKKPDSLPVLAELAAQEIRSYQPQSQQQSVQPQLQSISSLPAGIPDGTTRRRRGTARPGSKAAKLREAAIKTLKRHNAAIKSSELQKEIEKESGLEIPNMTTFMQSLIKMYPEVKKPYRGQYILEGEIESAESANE
Assay: protein binding microarray; high values mean tight binding
Details: protein: recombinant; tags: GST (pTH5325, pDEST15-Magic modified); dsDNA, one strand shown
The full ranking holds about 33,000 sequences; the median of “e-score” is about -0.037, and the highest 2% start at about 0.34. For the sample, the highest values were picked, then their nearest neighbours and some sequences at random.
measured_metric: binding signal
Write the numeric value and follow it with the unit.

Check the records and state binding signal for TAATAATA 0.395 E-score

Write down binding signal measured for item GAATAATA 0.271 E-score

Identify measured binding signal corresponding to AGAATCTG -0.0414 E-score

// Input: CAATAATA . Output its binding signal only. 0.352 E-score

Please give the documented binding signal of TATATCGA 0.304 E-score

Let me know recorded binding signal for CATATATA , thanks. 0.38 E-score

Look up and state reported binding signal for AATTAATA 0.256 E-score

Please look at this sequence and report its binding signal: CACCTAAC 0.06 E-score

* * *

Molecular target: GST-Rok (full length) (Bacillus subtilis subsp. subtilis str. …, UniProt O34857 1-191)
Sequence: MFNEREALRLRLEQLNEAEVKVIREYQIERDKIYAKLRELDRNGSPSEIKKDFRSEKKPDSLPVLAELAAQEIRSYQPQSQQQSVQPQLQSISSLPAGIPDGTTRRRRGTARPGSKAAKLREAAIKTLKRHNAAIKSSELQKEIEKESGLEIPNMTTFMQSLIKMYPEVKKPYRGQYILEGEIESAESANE
Experiment: protein binding microarray; high values mean tight binding
Details: protein: recombinant; tags: GST (pTH5325, pDEST15-Magic modified); dsDNA, one strand shown
In all, about 33,000 sequences were measured (“e-score”: median about -0.037, highest 2% from about 0.34 on). Many of the other results were omitted from the sample, so the highest values are more common in it than they were.
# if measured binding signal < 0.2 E-score: T  # else: F

Here's an entry: CTAGTTCA . Is its binding signal below 0.2 E-score? T

binding signal under 0.2 E-score? Item: GCTGCTGA T

Hello, is binding signal of the following sequence strictly smaller than 0.2 E-score? ATCTAGTA F

Given ATAGTTTA , is recorded binding signal strictly lower than 0.2 E-score? F

Is it true that binding signal reported for AAGTAGTA is less than 0.2 E-score? F

binding signal under 0.2 E-score? Item: ACGGGTTC T

Quick check: does AGTCCAAA have binding signal under 0.2 E-score? T

Bench note: check whether ATTTTTGA shows binding signal below 0.2 E-score T

Is the reported binding signal for AACTAGGG strictly below 0.2 E-score? T

Hello, is binding signal of the following sequence strictly smaller than 0.2 E-score? AGGAATGC T

# TODO verify binding signal < 0.2 E-score strictly for this sequence: AAATATCA F

Consider AGAACATG . Does its binding signal lie strictly below 0.2 E-score? F

Quick check: does ACTACTGA have binding signal under 0.2 E-score? F

Lab log: compare recorded binding signal with 0.2 E-score; is it strictly lower for AAATATTA ? F

Threshold test, binding signal < 0.2 E-score: TAGTAGGA F

binding signal under 0.2 E-score? Item: ATGTCGCG T

binding signal strictly < 0.2 E-score for this sequence? CTGCAATA T

Does AGCCCAAC have binding signal strictly under 0.2 E-score? T

Hello, I'm reviewing records and need to know if binding signal of GAGAGAGA is below 0.2 E-score. Could you check? T

Strictly below 0.2 E-score: is that where binding signal of ACATTCTC sits? T

For AGTGGAGG , is the recorded binding signal below the cut-off of 0.2 E-score? T

Given the entry CATCGTAA , would its reported binding signal be below 0.2 E-score? T

Would you kindly verify if binding signal of AAGAGCGA is strictly less than 0.2 E-score? T

# strict comparison: is reported binding signal < 0.2 E-score? input = ACTACTCA F

Strictly below 0.2 E-score: is that where binding signal of ACGAGTAG sits? T

In plain terms, does CGGAGGAA come in under 0.2 E-score for binding signal? T

Would you kindly verify if binding signal of ACAGTGTC is strictly less than 0.2 E-score? T

# check: binding signal < 0.2 E-score for AACTAGGT F

A record lists AGTACTTA . Is its binding signal below 0.2 E-score? F

Below 0.2 E-score on binding signal? Entry CGTGGCTC T

Determine whether this sequence shows binding signal lower than 0.2 E-score (ties excluded): AGAAAGAT T

Please check: binding signal for AACTAGGC , strictly under 0.2 E-score or not? T

In the record for ACCATGCT , is binding signal less than 0.2 E-score? T

Is binding signal of AACTATTA strictly below 0.2 E-score? F

Could you please tell me whether binding signal recorded for CTCTAGTA is less than 0.2 E-score? T

Strictly below 0.2 E-score: is that where binding signal of CTAGTTGA sits? F

Confirm or reject: binding signal of AACTATTC lies strictly below 0.2 E-score F

For this sequence, is binding signal lower than 0.2 E-score? AGCCGGAT T

Record CCTACTAA : is its binding signal strictly below 0.2 E-score? T

Find out if reported binding signal for TATGTCGA is less than 0.2 E-score T

Hello, is binding signal of the following sequence strictly smaller than 0.2 E-score? TCTACTAA F

Report whether reported binding signal is lower than 0.2 E-score (strictly) for GACTAGGA T

Report whether reported binding signal is lower than 0.2 E-score (strictly) for AAGCGTCG T

Hello, is binding signal of the following sequence strictly smaller than 0.2 E-score? AGTACTTG F

Consider CTAGTTTC . Does its binding signal lie strictly below 0.2 E-score? F

* * *

Target: GST-Rok (full length) (Bacillus subtilis subsp. subtilis str. …, UniProt O34857 1-191)
Sequence: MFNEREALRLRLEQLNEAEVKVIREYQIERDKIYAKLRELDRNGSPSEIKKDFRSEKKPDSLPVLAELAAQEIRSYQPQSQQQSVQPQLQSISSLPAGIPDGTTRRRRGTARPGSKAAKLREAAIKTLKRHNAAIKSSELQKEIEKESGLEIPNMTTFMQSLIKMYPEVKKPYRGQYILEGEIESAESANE
Assay: protein binding microarray; high values mean tight binding
Settings: protein: recombinant; tags: GST (pTH5325, pDEST15-Magic modified); dsDNA, one strand shown
In all, about 33,000 sequences were measured (“e-score”: median about -0.037, highest 2% from about 0.34 on). The full list was thinned out, with the highest values kept by preference.
measured_metric: binding signal (E-score)
Just the number please, in E-score, no unit attached.

Give reported binding signal value for ATTACCTC 0.167

Specify reported binding signal for the sequence shown: ACTTGTAC 0.345

Tell me its binding signal given CAACAGTA as the entry. 0.316

Return binding signal for the following sequence: GTCTACAC -0.0482

Read the entry GTTACGTA and write its reported binding signal. 0.169

Annotate the sequence AATTGTAC with its measured binding signal. 0.341

Tell me its binding signal given GGCTTCAA as the entry. -0.0517

Give recorded binding signal. ATTACCTG 0.126

Tell me binding signal reported for ATAAATAT 0.339

Determine its reported binding signal: CAATTACA 0.189

Respond only with binding signal recorded for ATCTACAC 0.348

Quote binding signal reported for ACATTAAT please. 0.245

Tell me measured binding signal for TATTGAAA please. 0.0126

# return recorded binding signal for input CTCTACAC 0.0962

Read the entry AATACCTA and write its reported binding signal. 0.267

Tell me binding signal reported for ACTTGTAA 0.168

Indicate its recorded binding signal; the sequence in question is GGTCGGGA -0.156

Item AATTGTAG : provide binding signal 0.28

Input CACATCTC , output reported binding signal. 0.0106

* * *

Target: GST-Rok (full length) (Bacillus subtilis subsp. subtilis str. …, UniProt O34857 1-191)
Sequence: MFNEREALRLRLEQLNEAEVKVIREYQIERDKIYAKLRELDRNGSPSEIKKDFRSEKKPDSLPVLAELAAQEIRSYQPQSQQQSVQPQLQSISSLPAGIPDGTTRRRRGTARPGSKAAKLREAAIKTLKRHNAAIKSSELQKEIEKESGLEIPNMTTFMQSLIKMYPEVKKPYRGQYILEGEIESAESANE
Assay: protein binding microarray; Rok is a gene silencer of Bacillus subtilis; high values mean tight binding
Conditions: protein: recombinant; tags: GST (pTH5325, pDEST15-Magic modified); dsDNA, one strand shown
The full ranking holds about 33,000 sequences; the median of “e-score” is about -0.037, and the highest 2% start at about 0.34. The list comes from a sample in which the highest values are over-represented; it also holds close analogues and randomly drawn sequences.
Exercise: state measured binding signal for each of the sequences provided.
Unit E-score implied. Number only.

Using the record for AAATTCGT , state its measured binding signal. 0.226

Return binding signal for the following sequence: ATGAATCC 0.0418

Determine its reported binding signal: ATTTTGAA 0.162

In one line, give reported binding signal of the entry CTACATGA . 0.347

Give the value of binding signal reported for the following: GCGTATCA 0.0845

// Input: GCAAAAAC . Output its binding signal only. 0.0325

Give recorded binding signal. AAACCCGT -0.0147

Look up binding signal of ATAACAAT and report it. 0.266

Tell us which binding signal value is on record for CGGCATGA -0.101

Report measured binding signal; entry is ACCGATCC -0.198

Provide one value: measured binding signal of GACAACTA 0.333

Name the recorded binding signal of the sequence listed here: ACGAACGA -0.116

Look up and state reported binding signal for GCCGTTAA -0.0418

Specify binding signal for CCTCTCTA and stop. -0.198

Give binding signal for the following sequence: AAGTGGAG -0.191

Give a short answer stating reported binding signal for GTAGAAGA . 0.247

Please report the measured binding signal for ACGTTCTC 0.0202

Please look at this sequence and report its binding signal: GTACATTA 0.262

Provide measured binding signal value, entry: TGAACTAA 0.0469

Please report the measured binding signal for ACAAAATA 0.34

Look up and report measured binding signal for this entry: AAGGACGA -0.157

Using known records, supply binding signal for CTACATTA 0.355

Answer with the recorded binding signal of AGGAAGTG only. -0.139

Check the records and state binding signal for CAGAAATA 0.303

Give the measured binding signal for CGAGTAGA 0.0915

Fill in reported binding signal for this entry: ATCTTTAA 0.0286

Determine its reported binding signal: CTAATGTA 0.184

Quote binding signal reported for TAGGCTAA please. -0.112

Query binding signal for AAGCGACT 0.0908

Quote binding signal reported for AGAGACCT please. -0.154

Kindly indicate its recorded binding signal. Item: CACGTTGA 0.088

Provide measured binding signal value, entry: TTATGCAA 0.154

Please give the documented binding signal of CCAAAAAG -0.177

Report measured binding signal; entry is GTAATGAA -0.0724

Please give the documented binding signal of TAGAAATA 0.409

For ATGCGAGA , write its binding signal. 0.00939

Indicate its recorded binding signal; the sequence in question is CCAAAATA 0.164
